Measured values drawn from patent US20220324835A1 for this set.

Biological target: Cbl-b (Homo sapiens, UniProt Q13191)
Sequence (Q13191 36-427): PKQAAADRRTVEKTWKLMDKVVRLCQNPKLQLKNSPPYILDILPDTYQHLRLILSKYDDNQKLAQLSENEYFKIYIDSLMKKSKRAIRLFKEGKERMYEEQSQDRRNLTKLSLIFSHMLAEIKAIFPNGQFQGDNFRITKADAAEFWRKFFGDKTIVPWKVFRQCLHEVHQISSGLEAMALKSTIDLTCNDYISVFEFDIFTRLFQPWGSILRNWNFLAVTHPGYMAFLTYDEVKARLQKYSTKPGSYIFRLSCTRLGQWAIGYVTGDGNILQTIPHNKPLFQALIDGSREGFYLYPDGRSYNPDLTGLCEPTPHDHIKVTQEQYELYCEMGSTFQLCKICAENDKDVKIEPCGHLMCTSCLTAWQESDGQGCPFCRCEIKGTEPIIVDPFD
Experiment: Cbl-b activity assay (Cbl-b inhibition assay), TR-FRET of Cbl-b interaction with UbcH5B-Ub
Type: biochemical
Conditions: Cbl-b activity IC50 (μM), assay buffer with 100 mM NaCl, 60 nM Src kinase

{"Mol Smiles": "Cn1cnnc1CC1(c2cccc(NC(=O)c3nc(C(F)(F)F)cs3)c2)COC1", "IC50": "0.301 to 1 µM"}

----------
Target: Cbl-b (Homo sapiens, UniProt Q13191)
Test: Cbl-b activity assay (Cbl-b inhibition assay), TR-FRET of Cbl-b interaction with UbcH5B-Ub
Type: biochemical
Conditions: assay buffer with 100 mM NaCl, 60 nM Src kinase; read-out: Cbl-b activity IC50
pIC50: −log10 of the molar value.
Each entry below carries its recorded pIC50.

{"Molecule": "C[C@H](Cc1nncn1C)c1cccc(NC(=O)c2cc(C(C)(C)O)cc(C(F)(F)F)n2)c1 [Compound 320]", "pIC50": "6.52 to 7.00"}
{"Molecule": "Cn1cnnc1CC1(c2cccc(N3Cc4c(cc(C5CCC5)cc4C(F)(F)F)C3=O)c2)COC1 [Example 611]", "pIC50": "> 7.00"}
{"Molecule": "C[C@H](Cc1nncn1C)c1cc(N[C@@H]2CCOC2)nc(N2Cc3c(cccc3C(F)(F)F)C2=O)c1 (stereo in doubt) [Compound 362]", "pIC50": "6.52 to 7.00"}
{"Molecule": "C[C@H](Cc1nncn1C)c1cccc(NC(=O)c2ccnc(C3CC3)n2)c1 [Compound 199]", "pIC50": "> 7.00"}
{"Molecule": "C[C@H](Cc1nncn1C)c1cc(NC2COC2)nc(N2Cc3c(cccc3C(F)(F)F)C2=O)c1 [Compound 352]", "pIC50": "> 7.00"}
{"Molecule": "Cc1cc2c(c(C3CC3)n1)CN(c1cccc([C@H](C)Cc3nncn3C)c1)C2=O [Compound 372]", "pIC50": "6.00 to 6.52"}
{"Molecule": "Cn1cnnc1CC1(c2cccc(N3Cc4c(cc(N5CCC(C(F)F)C5)cc4C(F)(F)F)C3=O)c2)COC1 (centres unmarked) [Example 601]", "pIC50": "> 7.00"}
{"Molecule": "CC(c1cc(C(=O)Nc2cccc(C3(Cc4nncn4C)COC3)c2)nc(C2CC2)n1)N1CCC2(CC2)C1 (stereo in doubt) [Example 592b]", "pIC50": "> 7.00"}
{"Molecule": "CC(c1cc2c(c(C(F)(F)F)c1)CN(c1cccc([C@H]3C[C@H]3c3nncn3C)c1)C2=O)N1CC[C@H](F)C1 (some centres unmarked) [Compound 466]", "pIC50": "> 7.00"}
{"Molecule": "Cc1cc(C(=O)Nc2cccc([C@H](C)Cc3nncn3C)c2)nc(C2CC2)n1 [Compound 195]", "pIC50": "> 7.00"}
{"Molecule": "CC(c1cc2c(c(C(F)(F)F)c1)CN(c1cccc(C3(Cc4nncn4C)COC3)c1)C2=O)n1ccnc1 (centres unmarked) [Compound 542]", "pIC50": "> 7.00"}
{"Molecule": "CN1C[C@H]2CC[C@@H](C1)N2c1cc(C(=O)Nc2cccc(C3(Cc4nncn4C)COC3)c2)nc(C2CC2)n1 [Example 573]", "pIC50": "> 7.00"}
{"Molecule": "Cn1cnnc1CC1(c2cccc(N3Cc4c(cc(CN5CCC(C#N)CC5)cc4C(F)(F)F)C3=O)c2)COC1 [Example 628]", "pIC50": "> 7.00"}
{"Molecule": "CCOc1cc(N2Cc3c(cc([C@H](C)N4CC[C@H](F)C4)cc3C(F)(F)F)C2=O)cc(C2(Cc3nncn3C)COC2)c1 [Example 691b]", "pIC50": "> 7.00"}
{"Molecule": "Cn1cnnc1[C@@H](F)[C@@](C)(F)c1cccc(N2Cc3c(cc(C4CC4)cc3C(F)(F)F)C2=O)c1 [Compound 481b]", "pIC50": "5.52 to 6.00"}
{"Molecule": "C[C@H](Cc1nncn1C)c1cccc(N2Cc3c(cc([C@@H](C)N4CC(O)C4)cc3C(F)(F)F)C2=O)c1 [Compound 405]", "pIC50": "> 7.00"}
{"Molecule": "C[C@H](Cc1nncn1C)c1cccc(NC(=O)c2cc(C(=O)N3CCC(C)(O)CC3)ccn2)c1 [Compound 227]", "pIC50": "5.52 to 6.00"}
{"Molecule": "C[C@H](Cc1nncn1C)c1cccc(NC(=O)c2cc(C3(O)COC3)cc(C(F)(F)F)n2)c1 [Compound 190]", "pIC50": "6.52 to 7.00"}
{"Molecule": "Cn1cnnc1[C@H](F)C1(c2cccc(N3Cc4c(cc(CN5C6CCCC5CC6)cc4C(F)(F)F)C3=O)c2)COC1 [Example 675b]", "pIC50": "> 7.00"}
{"Molecule": "C[C@H](Sc1nncn1C)c1cccc(NC(=O)c2cc(C(=O)N3CCC(S(C)(=O)=O)C3)ccn2)c1 (some centres unmarked) [Compound 158]", "pIC50": "5.00 to 5.52"}
{"Molecule": "Cc1cc(C(=O)Nc2cccc(-c3c(-c4nncn4C)cnn3C)c2)nc(C2CC2)n1 [Compound 522]", "pIC50": "6.52 to 7.00"}
{"Molecule": "CN[C@@H]1CCN(C(=O)c2ccnc(C(=O)Nc3cccc([C@H](C)Cc4nncn4C)c3)c2)C1 [Compound 249]", "pIC50": "5.52 to 6.00"}
{"Molecule": "C[C@@H](c1cccc(N2Cc3c(cccc3C(F)(F)F)C2=O)c1)[C@@H](F)c1nncn1C (single isomer, unassigned) [Compound 474a]", "pIC50": "> 7.00"}
{"Molecule": "Cn1cnnc1CC1(c2cccc(N3Cc4c(cc(CN5CCCC(F)(F)C5)cc4C(F)(F)F)C3=O)c2)COC1 [Example 693]", "pIC50": "> 7.00"}
{"Molecule": "Cc1cc(C(=O)Nc2cccc(C3(Cc4nncn4C)CCC3)c2)nc(C2CC2)n1 [Example 694]", "pIC50": "> 7.00"}
{"Molecule": "Cn1cnnc1CC1(c2cccc(N3Cc4c(cc(N5CC6(C5)CC(F)(F)C6)cc4C(F)(F)F)C3=O)c2)COC1 [Example 602]", "pIC50": "> 7.00"}
{"Molecule": "CCOc1cc(NC(=O)c2cc(C)nc(C3CC3)n2)cc(C2(Cc3nncn3C)COC2)c1 [Example 690]", "pIC50": "> 7.00"}
{"Molecule": "Cn1cnnc1CC1(c2cccc(N3Cc4c(cc(C5CC5)nc4C4CC4)C3=O)c2)COC1 [Example 568]", "pIC50": "> 7.00"}
{"Molecule": "C[C@H](Cc1nncs1)c1cccc(N2Cc3c(cccc3C(F)(F)F)C2=O)c1 [Compound 368]", "pIC50": "6.00 to 6.52"}

----------
System: T-cell
Assay: IL-2 secretion from T-cells stimulated with anti-CD3 antibody alone (Biological Example 2)
Assay type: cell-based
Conditions: 1 μM compound, primary human total T-cells, read-out: IL-2 secretion, Anti-CD3 stimulation, fold change over baseline
We begin with a simple list: items and their reported fold induction at 1 µM.

{"Compound": "CCOc1cc([C@@](C)(F)C(F)(F)c2nncn2C)cc(NC(=O)c2cc(C)nc(C3CC3)n2)n1", "Tested On": "T-cell", "fold induction at 1 µM": "0.101 to 0.15"}
{"Compound": "CN1CCN(c2cc3c(c(C(F)(F)F)c2)CN(c2cccc(C4(Cc5nncn5C)COC4)c2)C3=O)C(=O)C1", "Tested On": "T-cell", "fold induction at 1 µM": "0.051 to 0.1"}
{"Compound": "C[C@H](Cc1nncn1C)c1cccc(N2Cc3c(cc(CN4CC(F)C4)cc3C(F)(F)F)C2=O)c1", "Tested On": "T-cell", "fold induction at 1 µM": "0.151 to 0.2"}
{"Compound": "C[C@H]1CN(C)CCN1c1cc2c(c(C(F)(F)F)c1)CN(c1cccc(C3(Cc4nncn4C)COC3)c1)C2=O", "Tested On": "T-cell", "fold induction at 1 µM": "> 0.201"}
{"Compound": "CC(c1cc(C(=O)Nc2cccc(C3(Cc4nncn4C)COC3)c2)nc(C2CC2)n1)N1CC(F)C1 (centres unmarked)", "Tested On": "T-cell", "fold induction at 1 µM": "0.101 to 0.15"}

----------
Test system: T-cell
Assay: CD25 cell surface staining on T-cells stimulated with anti-CD3 antibody alone (Biological Example 2)
Assay type: cell-based
Details: 1 μM compound, primary human total T-cells, baseline = anti-CD3/anti-CD28 stimulated cells without inhibitor, read-out: CD25 staining, Anti-CD3 stimulation, fold change over baseline
// reported fold induction at 1 µM per item
Quantity Measured: fold induction at 1 µM

{"Molecule": "C[C@H](Cc1nocc1C(F)(F)F)c1cccc(N2Cc3c(cc(CN4CC[C@H](F)C4)cc3C(F)(F)F)C2=O)c1 [Compound 485]", "Test Value": "0.601 to 0.8"}
{"Molecule": "CN1CCN(c2cc3c(c(C(F)(F)F)c2)CN(c2cccc([C@@](C)(F)C(F)(F)c4nncn4C)c2)C3=O)CC1 [Compound 441]", "Test Value": "0.601 to 0.8"}
{"Molecule": "Cc1conc1CC1(c2cccc(NC(=O)c3cc(CN4CC[C@H](O)C4)nc(C4CC4)n3)c2)COC1 [Compound 507]", "Test Value": "> 1"}
{"Molecule": "C[C@H](Cc1nncn1C)c1cccc(N2Cc3c(cc(C(C)(C)O)cc3C(F)(F)F)C2=O)c1 [Compound 374]", "Test Value": "0.801 to 1"}
{"Molecule": "Cn1cnnc1CC1(c2cccc(NC(=O)c3nc(C4CC4)cs3)c2)COC1 [Compound 493]", "Test Value": "< 0.6"}
{"Molecule": "C[C@@H](c1cccc(N2Cc3c(cccc3C(F)(F)F)C2=O)c1)[C@H](F)c1nncn1C (racemic) [Compound 473]", "Test Value": "0.601 to 0.8"}
{"Molecule": "Cc1conc1CC1(c2cccc(NC(=O)c3cc(CN4CCC5(CC5)C4)cc(C4CC4)n3)c2)COC1 [Compound 500]", "Test Value": "> 1"}
{"Molecule": "C[C@H](Cc1nncn1C)c1cccc(N2Cc3c(cc([C@H](C)N4CC(O)C4)cc3C(F)(F)F)C2=O)c1 [Compound 406]", "Test Value": "> 1"}
{"Molecule": "CC[C@H](c1cc2c(c(C(F)(F)F)c1)CN(c1cccc(C3(Cc4nncn4C)COC3)c1)C2=O)N1CC[C@H](F)C1 [Example 546]", "Test Value": "> 1"}
{"Molecule": "C[C@H]1CN(C)CCN1c1cc2c(c(C(F)(F)F)c1)CN(c1cccc([C@@](C)(F)C(F)(F)c3nncn3C)c1)C2=O [Compound 444]", "Test Value": "> 1"}
{"Molecule": "Cn1cnnc1CC1(c2cccc(N3Cc4c(cc(CN5CCS(=O)(=O)CC5)cc4C(F)(F)F)C3=O)c2)COC1 [Compound 434]", "Test Value": "> 1"}
{"Molecule": "C[C@@H]1CN(C)CCN1c1cc2c(c(C(F)(F)F)c1)CN(c1cccc([C@@](C)(F)C(F)(F)c3nncn3C)c1)C2=O [Compound 443]", "Test Value": "0.801 to 1"}
{"Molecule": "Cc1[nH]ncc1-c1cc2c(c(C(F)(F)F)c1)CN(c1cccc([C@H](C)Cc3nncn3C)c1)C2=O [Compound 381]", "Test Value": "0.801 to 1"}
{"Molecule": "CC(Cc1nncn1C)c1cc(C2CCC2)cc(N2Cc3c(cccc3C(F)(F)F)C2=O)c1 (stereo not shown) [Compound 476]", "Test Value": "0.601 to 0.8"}
{"Molecule": "Cn1cnnc1CC1(c2cccc(NC(=O)c3cc(OC(F)F)cc(C4CC4)n3)c2)COC1 [Compound 502]", "Test Value": "> 1"}
{"Molecule": "Cc1cc(C(=O)Nc2cccc(-c3c(-c4nncn4C)cnn3C)c2)nc(C2CC2)n1 [Compound 522]", "Test Value": "0.601 to 0.8"}
{"Molecule": "Cn1cnnc1CC1(c2cccc(N3Cc4c(cccc4C(F)(F)F)C3=O)c2)CC(F)(F)C1 [Compound 527]", "Test Value": "> 1"}
{"Molecule": "Cn1cnnc1C[C@H](c1cccc(N2Cc3c(cccc3C(F)(F)F)C2=O)c1)C(F)(F)F [Compound 471a]", "Test Value": "0.601 to 0.8"}
{"Molecule": "C[C@H](Cc1nncn1C)c1cccc(N2Cc3c(cc(C4CC4)nc3C3CC3)C2=O)c1 [Compound 370]", "Test Value": "0.601 to 0.8"}
{"Molecule": "Cn1cnnc1C(F)(F)[C@](C)(F)c1cccc(N2Cc3c(cc(CN4C[C@@H](F)[C@@H](F)C4)cc3C(F)(F)F)C2=O)c1 [Compound 461]", "Test Value": "> 1"}
{"Molecule": "Cn1cnnc1CC1(c2cccc(N3Cc4c(cc(CN5CC(F)C5)cc4C(F)(F)F)C3=O)c2)COC1 [Compound 415]", "Test Value": "> 1"}
{"Molecule": "C[C@H](Cc1nncn1C)c1cc(N[C@@H](C)CO)nc(N2Cc3c(cccc3C(F)(F)F)C2=O)c1 [Compound 365]", "Test Value": "0.601 to 0.8"}
{"Molecule": "Cc1conc1CC1(c2cccc(N3Cc4c(cc(CN5CCC6(CC6)C5)cc4C(F)(F)F)C3=O)c2)COC1 [Compound 535]", "Test Value": "> 1"}
{"Molecule": "Cc1conc1C[C@@H](C)c1cccc(N2Cc3c(cccc3C(F)(F)F)C2=O)c1 [Compound 367a]", "Test Value": "0.601 to 0.8"}
{"Molecule": "C[C@H]1CN(C)CCN1c1cc2c(c(C(F)(F)F)c1)CN(c1cccc(C3(Cc4nncn4C)COC3)c1)C2=O [Compound 389]", "Test Value": "> 1"}
{"Molecule": "C[C@@H](c1cc2c(c(C(F)(F)F)c1)CN(c1cccc(C3(Cc4nncn4C)COC3)c1)C2=O)N1CCC2(CC1)CC2 [Example 558a]", "Test Value": "> 1"}
{"Molecule": "Cn1cnnc1C(F)(F)[C@](C)(F)c1cccc(N2Cc3c(cc(CN4CC(C(F)F)C4)cc3C(F)(F)F)C2=O)c1 [Compound 453]", "Test Value": "> 1"}
{"Molecule": "C[C@H](Cc1nncn1C)c1cccc(N2Cc3c(cc([C@@H](C)N4CC[C@H](F)C4)cc3C(F)(F)F)C2=O)c1 [Compound 403]", "Test Value": "> 1"}
